- Tgt: BCL6::BCOR (Homo sapiens, UniProt P41182, C67R/C84N/C8Q)
- Construct: BCL6 (amino acids 5 to 129, with the following changes to the natural protein)
- Measurement protocol: BCL6::BCOR ULight TR-FRET assay
Readout: pIC50
Worth noting: pIC50 values are minus log10 of concentrations stated in mol/L.

Here are 10 compounds together with their reported answers.
{"Compound": "CC(CN(C)C)OC(=O)COc1cc2cc(Nc3nc(N4C[C@H](C)C[C@H](C)C4)ncc3Cl)ccc2n(C)c1=O (some centres unmarked)", "pIC50": 8.30}
{"Compound": "CNC(=O)COc1cc2cc(Nc3nc(N4CCc5cnn(C)c5C4)ncc3Cl)ccc2n(C)c1=O", "pIC50": 8.15}
{"Compound": "CNC(=O)COc1cc2cc(Nc3nc(N4CCC(C(=O)N(C)C)CC4)ncc3Cl)c(F)cc2n(C)c1=O", "pIC50": 7.72}
{"Compound": "CNC(=O)COc1cc2cc(Nc3cc(N4C[C@H](C)C[C@H](C)C4)ncc3Cl)ccc2n(C)c1=O", "pIC50": 7.66}
{"Compound": "C[C@H]1CN(c2ncc(Cl)c(Nc3ccc4c(c3)cc(OCC(=O)O)c(=O)n4C)n2)CCO1", "pIC50": 7.96}
{"Compound": "Cn1c(=O)c(OCC(=O)O)cc2cc(Nc3nc(N4C[C@H]5C[C@@H](C4)c4ccccc45)ncc3Cl)ccc21", "pIC50": 7.42}
{"Compound": "CNC(=O)COc1cc2cc(Nc3nc(N4CCC(F)(F)CC4)ncc3F)ccc2n(C)c1=O", "pIC50": 8.22}
{"Compound": "CNC(=O)COc1cc2cc(Nc3nc(N4C[C@@H](CO)N[C@@H](C)C4)ncc3Cl)ccc2n(C)c1=O (single isomer, unassigned)", "pIC50": 7.89}
{"Compound": "CNC(=O)COc1cc2cc(Nc3nc(N4CCCC(CN5CCCCC5)C4)ncc3Cl)ccc2n(C)c1=O (centres unmarked)", "pIC50": 8.05}
{"Compound": "CNC(=O)COc1cc2cc(Nc3nc(-n4nc(C)cc4C)ncc3Cl)ccc2n(C)c1=O", "pIC50": 7.92}

Attention now turns to another entry.
What pIC50 appears in the records for this compound with BCL6::BCOR (Homo sapiens, UniProt P41182, C67R/C84N/C8Q)? Cn1c(=O)c(OCC(=O)O)cc2cc(Nc3nc(N4CCC5(CC4)OCCCO5)ncc3Cl)ccc21
8.00

###

- Tgt: BCL6::BCOR (Homo sapiens, UniProt P41182, C67R/C84N/C8Q)
- Construct: BCL6 (amino acids 5 to 129, with the following changes to the natural protein)
- Measurement protocol: BCL6::BCOR ULight TR-FRET assay
// values below are reported IC50
Your answer should be a plain number; it is taken to be in nM.

Here are 3 compounds together with their reported answers.
{"Compound": "CNC(=O)COc1cc2cc(Nc3nc(N4CCN(CCN(C)C)CC4)ncc3Cl)ccc2n(C)c1=O [Compound I-20]", "Value units": "nM", "IC50": 6}
{"Compound": "CNC(=O)COc1cc2cc(Nc3nc(N4CCC(N5CCC(C)CC5)CC4)ncc3Cl)ccc2n(C)c1=O [Compound I-40]", "Value units": "nM", "IC50": 9}
{"Compound": "CNC(=O)COc1cc2cc(Nc3nc(N4CCC(C(=O)NCCCCCN)CC4)ncc3Cl)ccc2n(C)c1=O [Compound I-145]", "Value units": "nM", "IC50": 6}

Name the recorded IC50 for CNC(=O)COc1cc2cc(Nc3nc(N4C[C@H](C)C[C@@H](NC)C4)ncc3Cl)ccc2n(C)c1=O [Compound I-8] .
21

Do the same for CNC(=O)COc1cc2cc(Nc3nc(N4CCC[C@H](C)C4)ncc3Cl)ccc2n(C)c1=O [Compound I-66] please
5

Do the same for CNC(=O)COc1cc2cc(Nc3nc(N4C[C@H](C(F)(F)F)C[C@H](C(F)(F)F)C4)ncc3Cl)ccc2n(C)c1=O [Compound I-14] please
20

Do the same for CNC(=O)COc1cc2cc(Nc3nc(N4C[C@H](C)C[C@H](C)C4)ncc3Cl)ccc2n(C(C)C)c1=O [Compound I-83] please
12
